Tested on: MDA-MB-468 breast
experiment: NCI tumour cell line growth inhibition, 48 h
readout-name: TGI (µM)
All answers are understood in µM, so give the number only.

Value lookup for TGI; key = CCN(CC)CCC(CNc1c(C)cnc2cc(Cl)ccc12)c1ccc(Cl)c(Cl)c1 (stereo not given)
4.64

Return reported TGI; argument: `COc1ccc2cn3c4ccc(O)cc4[nH]c(=O)c3c2c1`
0.678

Consider the compound `COC(=O)[C@]12CC[C@@H](C)[C@H](C)[C@@H]1C1=CC[C@@H]3[C@@]4(C)C(C=O)=C[C@@](C)(COC(=O)c5ccco5)C4=CC[C@@]3(C)[C@]1(C)CC2` and give its measured TGI.
1.94

Entry `O=C1CCCc2cc3c(cc21)CC1(C3)Cc2cc3c(cc2C1)C(=O)CCC3` has what TGI?
62.7

Give its TGI value. Item: `CN1CCN(c2ccc(NC(=O)c3cncnc3Nc3ccc4c(ccn4Cc4cccc(F)c4)c3)cc2)CC1`
6.92

Name the reported TGI value associated with the compound COC(=O)C(Br)(C(=O)OC)C(Br)C(Br)C(Br)c1ccccc1 (stereo not given)
3.53

I have this compound here, `Cc1cc(O)cc(-c2nn(C)cc2-c2cc(N3CCOCC3)nc(-c3cccnc3)n2)c1` , and I need its recorded TGI.
5.63

Report TGI for `CCCCc1n(Cc2ccc3ccccc3n2)cc[n+]1Cc1ccc2ccccc2c1` please.
0.903

Query: TGI; subject: CCc1cccc2c3c(sc12)C(c1ccc(OC)cc1)C(C#N)=C(/N=C/c1ccc(Cl)cc1)O3 (stereo not given)
6.68

* * *

Test system: MDA-MB-468 breast
experiment: NCI tumour cell line growth inhibition, 48 h; in the data active means GI50 below about 0.43 µM; inactive means the rest
Thanks in advance; please answer with one of these: Y (active), N (inactive)

GET /call?item= `COc1ccc2cn3c4ccc(O)cc4[nH]c(=O)c3c2c1` returns the recorded outcome of this test.
Y

Outcome? N#CC1=C(N)Oc2c(ccc3cccnc23)C1c1ccccc1 (stereo not drawn)
Y

Lab log entry: `N#Cc1c(-c2ccc(F)cc2)nc(SCc2ccc(F)cc2)nc1N1CCNCC1` — outcome as called in the assay?
N

* * *

Test system: MDA-MB-468 breast
experiment: NCI tumour cell line growth inhibition, 48 h; in the data active means GI50 below about 0.43 µM; inactive means the rest
A correct response names exactly one class from active, inactive

So what was the verdict on `COc1ncc(-c2ccc3ncnc(Nc4cccc(Cl)c4)c3c2)cc1NS(C)(=O)=O` in this test?
active

Which result was noted for this compound in the test: `COC(=O)C[C@](O)(CCCC(C)C)C(=O)O[C@H]1C(OC)=C[C@@]23CCCN2CCc2cc4c(cc2[C@@H]13)OCO4`
inactive

Look up the recorded call for O=c1[nH]c(=O)n(C2CC(O)C(CO)O2)cc1F (stereo not given) in this test.
active

Outcome? `O=C(Cc1ccc(-c2ccc(OCCN3CCOCC3)cc2)cn1)NCc1ccccc1`
active

Please state the recorded outcome for this compound: Cc1nc2sc(C(=O)Nc3cccc(Cl)c3C)c(N)c2cc1C(O)c1ccccc1 (stereo not given)
active

Answer briefly: the call reported for `COc1ccc2c(ccc3oc([N+](=O)[O-])cc32)c1` in this assay.
active

Recorded call for `Nc1ncc(-c2ccc3ncnc(N4CCc5cc(F)c(F)cc54)c3c2)cn1` ?
inactive

Per the assay record, what outcome was assigned to `CN1CCN(c2ccc(NC(=O)c3cncnc3Nc3ccc4c(ccn4Cc4cccc(F)c4)c3)cc2)CC1` ?
inactive

Entry `NCCNc1nc2ccc(F)cc2c2c(=O)c3cc(F)ccc3sc12` : call = ?
inactive

Short answer needed: outcome of this test for `C=CC(=O)N1CCC(CNc2ncnc(N)c2-c2ccc(Oc3ccccc3)cc2)CC1` ?
inactive

* * *

Test system: MDA-MB-468 breast
experiment: NCI tumour cell line growth inhibition, 48 h; in the data active = GI50 below about 0.43 µM; inactive = the rest
Your answer must be one of the following: TRUE (active), FALSE (inactive)

What was the test verdict on `CCCCc1n(Cc2ccc3ccccc3n2)cc[n+]1Cc1ccc2ccccc2c1` ?
TRUE

What is the recorded call for this compound in the test? CCc1cccc2c3c(sc12)C(c1ccc(OC)cc1)C(C#N)=C(/N=C/c1ccc(Cl)cc1)O3 (stereo not given)
FALSE

Can you look up the reported call for `NC1=CC(=O)C(=O)c2ccccc21` for me?
FALSE

Test call for this compound, please: Nc1n[nH]c2cc(F)c([C@@H]3Nc4c(F)cc5[nH]ncc5c4[C@H]4C5CCC(C5)[C@@H]34)cc12 (stereo not given in full)
TRUE

Which outcome was entered for the compound `Cc1cc(O)cc(-c2nn(C)cc2-c2cc(N3CCOCC3)nc(-c3cccnc3)n2)c1` in this test?
FALSE
